B1: library; numbered along this chain (parent)
chain: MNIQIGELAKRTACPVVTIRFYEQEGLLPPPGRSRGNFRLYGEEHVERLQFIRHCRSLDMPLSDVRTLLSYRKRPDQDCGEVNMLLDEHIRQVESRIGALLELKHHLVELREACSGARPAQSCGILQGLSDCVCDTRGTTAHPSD

- Variants of: B1
- assayInfo: sfGFP reporter fluorescence (15 h) (µM FITC); higher = stronger transcriptional activation
- conditionLabel: library round: Round 0; ligand: 30 µM Zn
Short version: sfGFP reporter fluorescence at least 1 is Met, less is Not met.

Worked cases, answers included:
[[record]]
mutationspec = "E94T"
class = "Met"

[[record]]
mutationspec = "P61N K104V G128I"
class = "Met"

[[record]]
mutationspec = "P61N"
class = "Met"


Q. sfGFP reporter fluorescence >= 1 for M60L P61N D64K G128M ?
A. Met
